All values here come from patent EP4782464A1.

- SYSTEM UNDER TEST: mouse GCC (guanylyl cyclase C, GUCY2C) on cells (mouse) (UniProt Q3UWA6)
- Sequence (Q3UWA6 20-1072): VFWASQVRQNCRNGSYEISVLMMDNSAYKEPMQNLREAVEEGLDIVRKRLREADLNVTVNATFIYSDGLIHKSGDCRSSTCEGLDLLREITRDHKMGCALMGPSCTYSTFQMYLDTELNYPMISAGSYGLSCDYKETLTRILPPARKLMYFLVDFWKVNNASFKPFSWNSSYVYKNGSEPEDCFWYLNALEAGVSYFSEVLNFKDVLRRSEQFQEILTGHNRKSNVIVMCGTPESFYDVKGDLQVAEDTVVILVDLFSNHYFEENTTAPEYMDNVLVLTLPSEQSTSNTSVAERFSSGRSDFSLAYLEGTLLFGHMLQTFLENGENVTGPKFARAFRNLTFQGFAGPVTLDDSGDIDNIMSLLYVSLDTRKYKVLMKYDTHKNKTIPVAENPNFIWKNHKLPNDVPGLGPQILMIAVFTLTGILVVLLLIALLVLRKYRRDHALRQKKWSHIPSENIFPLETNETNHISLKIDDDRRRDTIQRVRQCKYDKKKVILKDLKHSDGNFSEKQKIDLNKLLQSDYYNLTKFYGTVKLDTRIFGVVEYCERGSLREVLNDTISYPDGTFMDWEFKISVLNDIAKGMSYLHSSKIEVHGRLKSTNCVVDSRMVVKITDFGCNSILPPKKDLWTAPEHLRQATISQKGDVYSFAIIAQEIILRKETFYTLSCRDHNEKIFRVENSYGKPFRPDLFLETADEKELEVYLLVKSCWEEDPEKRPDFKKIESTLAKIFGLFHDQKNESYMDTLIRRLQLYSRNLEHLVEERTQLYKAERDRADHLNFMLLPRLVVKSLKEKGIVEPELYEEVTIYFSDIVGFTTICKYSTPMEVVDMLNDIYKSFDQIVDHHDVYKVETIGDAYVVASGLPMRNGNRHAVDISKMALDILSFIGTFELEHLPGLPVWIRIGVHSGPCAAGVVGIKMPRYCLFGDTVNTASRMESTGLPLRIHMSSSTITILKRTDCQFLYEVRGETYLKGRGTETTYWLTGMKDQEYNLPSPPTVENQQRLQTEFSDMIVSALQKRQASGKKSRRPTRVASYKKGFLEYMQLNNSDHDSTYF
- EXPERIMENT NOTES: flow cytometry, B cell clone supernatant on Dubca-mouse GCC.Luc cells
MEASURED ATTRIBUTE: percent of cells bound (flow cytometry) (%)
Answer with a number only, understood to be in %.

-- ask Which percent of cells bound (flow cytometry) is listed for 21E1 (anti-GCC rabbit monoclonal antibody, B cell clone supernatant) (antibody, V domains shown) VH: QSLEESGGRLVTPGTPLTLTCTVSGIDLSSYDMTWVRQAPGKGLEWIGSIGDDGNTYYATWAKGRFTISKTSTTVHLKMTSLTTEDTATYFCARGWSFCKSWGQGTLVTVSS VL: AQVLTQTASPVSAAVGGTVTISCQSSQSVANNNLAWYQQKPGQPPSPLIYKASTLESGVPSRFSGSGSGTQFALTISGVQCDDAATYYCQGAYRSGIMAFGGGTEVVVR ?
-- reply 99.7

-- ask Field request: percent of cells bound (flow cytometry) | item: 14C2 (anti-GCC rabbit monoclonal antibody, B cell clone supernatant) (antibody, V domains shown, Tested as native rabbit antibody in B cell clone supernatant; also called 14C2-B cells; clone 14C2) VH: QSLEESGGRLVTPGTPLTLTCTASGFSLSNYDMSWVRQAPGKGLEWIGTIEPDGSTWYASWAKGRLTISRTSTTVDLKMTSLTTEDTATYFCVRGAPDYSSNAFNLWGQGTLVTVSS VL: DVVMTQTPSSVSEPVGGTVTIKCQASQSISSYLAWYQQKPGQPPKLLIYKASTLASGVSSQFRGSGSGTEFTLTISDLECADAATYYCQSTYAASNKLHFAFGGGTDVVVK
-- reply 99.2

-- ask // query percent of cells bound (flow cytometry) value for entry 25E2 (anti-GCC rabbit monoclonal antibody, B cell clone supernatant) (antibody, V domains shown) VH: QSVEESGGRLVTPGTPLTLTCTVSGIDLNKHAMGWVRQAPTKGLEWIGTIYVSTNTAYASWAKGRFTISKTSSTTVDLKMTSLTTEDTATYFCARGGGSSYYTGELYFNLWGQGTLVTVSS VL: AYDMTQTPASVEVAVGGTVSIKCQVSQSIGSWLAWYQQKPGQPPKLLIYSASTLASGVSSRFKGSGSGTEFTLTISDLACVDAATYYCQSYSSASTTAFGGGTEVVVR
-- reply 95.4

-- ask percent of cells bound (flow cytometry) lookup needed for 48D5 (anti-GCC rabbit monoclonal antibody, B cell clone supernatant) (antibody, V domains shown) VH: QSLEESGGRLVKPDETLTITCTVSGIDLSSNAISWVRQAPGEGLEYIGYIGTGGKSFYATWTKGRFTISKTSTTVDLKMTSLTNEDTAMYFCATGNTYLDLWGQGTLVTVSS VL: AQVLTQTPSSVSAAVGGTVTINCQSSQSVYGADYLAWYQQKPGQPPKLLIYRASNLASGVPSRFRGSGSGTQFTLTISEVQCDDAATYYCQGTYISSDWLNPFGGGTEVVVK , thanks.
-- reply 81.8

-- ask Please report the recorded percent of cells bound (flow cytometry) for 22G5 (anti-GCC rabbit monoclonal antibody, B cell clone supernatant) (antibody, V domains shown) VH: QSVEESGGRLVTPGTPLTLTCTVSGIDLSSYAMTWVRQAPGEGLEWIGTINTISTAYYANWAKGRFTISKTSTTVDLKIASPTTEDTATYFCARDHGYYDVWGQGTLVTVSS VL: AQVLTQTPSSVSAAVGGTVTINCQASQSVYKNNYLSWYQQKPGQPPRLLIYDASTLASGVPSRFKGSGSGTQFTLTISGVQCDDAATYYCLGEFSCSSGDCAAFGGGTEVVVK .
-- reply 74.1
